# assayProcedure: label from the status in PepcDB records
measurementType: protein production

- chainSequence: "MKIIRTRQRPFMVIVDVVLTVLAWVGLLYLLVRGLIPLLDSHEGPRIEAGMLDALTTLQFYAWVAVLNAVLLISWARYRQRRNKSYPPRLPAPVVDDKRLSETFKLNDATFAQMRQPGTMIVHNDEEGGISHVTTQFYRILPEDQQHPPLRVEPPPRVIHLRSEGDEGKKTGED"
  observedResult: "failed"
- chainSequence: "MAVAALLPQRPTSLEISMEGETFLWLIRHAPVDGVAGTIHAPDAPADLGDRAQLQALRQRLPRDSASYASPSRRTVETARALGLEPDLVGNFSEQDFGDWTGRRHDELAASGGEAYAQFWGDPAHARPPGGESFEDQVARVRHGLSRIGAGPATLVVHSGTIRAALCIALDLAPQSALRFVIDPLSLTRIDRLATGWRVVSVNQRVV"
  observedResult: "failed"

====

# assayProcedure: label from the status in PepcDB records

- chainSequence: "MKIRFISLASGSSGNCYYLGTEKYGILIDAGIGIRTIKKSLKDINVTMDSIRAVFITHDHADHIKAVGHLGEKLNIPVYTTARVHAGINKSYCMTEKLHGSVRYLEKEEPMLLEDFRIESFEVPHDGTDNVGYCIEIDGKVFSFLTDLGEITPTAARYICKAHYLIIEANYDEEMLRMGPYPTYLKERISSKTGHMSNIDTANFLAENIMEHLRYIWLCHLSKDNNHPELAYKTVEWKLKSKGIIVGKDVQLLALKRNTPSELYEFE"
  protein production: "failed"
- chainSequence: "MKLDDLNLFRLVVENGSYTATSRKTMIPVATITRRIQALEDSVNLRLLNRHARKLSLTEAGERFYHECSPLLQRLTSTAEEITDDCRGASGKIKISAPYNLTKRMMMPMFNDFMKKYPDINIELTTENNADQLDPTEWDVIFRVGPQRDSSLIARKIGEVKDILVASQDYLAANPAPNHAEELSNHSLLKGYPLIKWTLINSKGESVVNVERGRFQANALNVVRSACSEGLGITLMPDVMIKEYIESGELLRVLPDWSANPRDIYMLYNHKDHLPEKVRLFIDFVIAYNIH"
  protein production: "failed"

====

# assayProcedure: label from the status in PepcDB records
measurementType: protein production

Use the examples below as a reference point.
- chainSequence: "MAGQTEQVLNGVLEDIEHGRLGPGDLLEEAALTERHGVSRTPVREALIQLETQGLIRRLPRKGAVVFKPTLEEFLAILEVHARLEGQAAGLAARRMNATQAAELEAVVAACEAHARDKGDGDPFGYYRLNLRFHETVALGAGNPYLVEMIKTHARKLLAYYRARYSYPGSIPASAREHRQIATLIFDRRREEAEAAMIRHVQFDQVTVMDLLAALG"
  observedResult: "failed"
- chainSequence: "MTMADETIILNVLGQYTRAHDRRDPDAMAALFAPEATIEIVDAVGGASRSISRLEGRDAIRVAVRQMMAPHGYRAWSQNVVNAPIIVIEGDHAVLDAQFMVFSILAAEVPDGGWPTGTFGAQGRIVPIEAGQYRLTLRTVADGWVISAMRIEHRLPMAFG"
  observedResult: "not failed"
- chainSequence: "MNNPKPCEWKSNELSRGYIADYKAFNFVDGEGVRCSLYVSGCPFHCEGCYNKAAQSFKYGKPYTKELEDDILKDIGHESVQGLTLLGGEPFLNTATCLSIVKRIRATYGETKDIWSWTGYTWDEMMQETADKLELLSLIDVLVDGRFEQKLFDPNLAFRGSSNQRIIDVQKSLAAGEVVLYELLEHHHHHH"
  observedResult: "failed"
- chainSequence: "MAVKFFGQFLVEKGVVSRETLLQAIELQESVNLSFGATSLAMGILTEADIERIHNAQRIEDLRFGDMAVKLGLLTSEQMMQVLTRQKNTHLYIGEALVKVGSFQADELPKYLEEFKADQAQYATDTVVIPTGVSEPKIWEMVADLSYKMLTRVALLVFRPEPCFVADRVPAMDVYATMDFTGDISGRYFMGVTAATQKKIAKAILKEPNVDNEPKEILDDTVMEFVNVALGNIAAKAAQSGKSMEIAPPEIIEAPDGIQVPDGHKALCFPVCLSDGDRIELAVFIQQLEHHHHHH"
  observedResult: "not failed"
- chainSequence: "MKLIQMSDHIYKLNIQTTVGIPIQINTWFIVNDNDVYIIDTGMDDYAELQITIAKSLGNPKGIFLTHGHLDHINGAKRISEALKIPIFTYKNELPYINGELPYPNKTHTENTGVQYIVKPLETNTNLPFNYYLTPGHAPGHVIYFHNQDKILICGDLFISDAQHLHIPIKKFTYNMTENIKSGQIIDNLCPKLITTSHGDDLYYSDDIYSIYKFKYEELEHHHHHH"
  observedResult: "failed"

Proceeding to the next sequence to report its protein production.
Which protein production is reported for this sequence? MLEGIYLALDKMFGPMLRNTHPMWVVTVSGVILGAFFVLLNYFLVDQEKMKRLQKMAKELQEEFKKARESGDEKKLRKLQQKQLELLRLQNELMKDAFLKPMLITWPIIIIFWGWLKRWYFETAIVKYPFNFFLFDIFHKMYHSALKPDELGYFGWYFLTSYVVGTILRKVLDMA
failed

====

# assayProcedure: label from the status in PepcDB records

- chainSequence: "MVQMNNFLFDAQNIATPLMLVDLDDTLFQTHRRIVPQTDFKMVTTDKQGQALAYMNPIQQHFVQWLLHSTHLIPVTARSAEALSRVHLPFQYGAVCSHGGTVLNPDFSVNVDWHVQMQQALTSYQERQQILIDALQQQAINFGSIRTWVVEEQGLGLYIVAKQNTENDNPYAPNFLPELLNSLSSEVLEGFYFHLNGNNLALIPQPVSKANAARFVLQQFASQQRPILGFGDSLSDVEFLNLCHWWGMPNHSQLNRWVKHNLTQQYKQEGFYGDYQ"
  protein production: "failed"
- chainSequence: "MSTKTGNYISIAIFAFFGGIARAWLNSSFGFYGTFWGNIIGCFLLAFFTYLFMEFKDVRQWLTVGLGTGFVGAFTTFSTFNLDVLKNIQANVPITALIYFLSSIIFGFCFAYLGMNAGKQVGNLLRKED"
  protein production: "failed"
